Test system: LNCaP
Procedure summary: CellTiter-Glo cell viability assay (example 57)
Format: cell-based
Condition notes: Homo sapiens; LNCaP (Prostate); Cell Titer-Glo; 72 h

{"Compound": "CCN(CC)C1CCN(C(C)c2cc(-c3ccccc3)nc3ccccc23)CC1.Cl.Cl (stereo not drawn) [XIX-3, dihydrochloride]", "Unit label": "µM", "EC50": 25}
{"Compound": "CCN(CCO)CCCC(C)Nc1ccnc2cc(Cl)ccc12 (stereo not drawn) [HCQ, hydroxychloroquine]", "Unit label": "µM", "EC50": 25}
{"Compound": "Nc1ccn([C@@H]2O[C@H](CO)[C@@H](O)C2(F)F)c(=O)n1 [Gemcitabine, gemcitabine]", "Unit label": "µM", "EC50": 0.04}
